Data origin, for the record: PubChem BioAssay

Test: MRP1 drug-resistance reversers in H69AR cells – cell-based, doxorubicin co-treatment, pilot screen (AID 601)
Conditions: H69AR cells + 2 uM doxorubicin, CellTiter-Glo, 72 h; at 10 µM; active compounds read high
measured_metric: differential viability (reversal) (%)
# number only, unit % dropped from output

- compound: "CC1(C)Cc2c(sc3c2C(=O)NC(c2cccnc2)N3)CO1 (configuration not stated)"
  differential viability (reversal) / %: 12.8
- compound: "CC(=O)C1C(=O)NC23CCCCC2C1c1ccccc1O3 (configuration not stated)"
  differential viability (reversal) / %: 4.31
- compound: "O=c1[nH]c(=O)n(-c2ccc(F)cc2)c(O)c1C=Nc1ccccc1N1CCCC1"
  differential viability (reversal) / %: -6.94
- compound: "CCOC(=O)C1SC2(C(F)F)CC1(O)c1c(c(OC)c3occc3c1OC)O2 (configuration not stated)"
  differential viability (reversal) / %: 22.9

Entry under review: CN1[C@@H]2CC[C@H]1CC(OC(=O)C1C=Nc3ccccc31)C2 (some centres not stated) . Reported differential viability (reversal)?
-14.3

Entry under review: O=C(c1ccc(CS(=O)(=O)c2ccccc2)o1)N1CCC2(CC1)OCCO2 . Reported differential viability (reversal)?
-6.95

Entry under review: CP(C)(=O)CCC(=O)O . Reported differential viability (reversal)?
18.2

Entry under review: c1ccc(Cn2ccnc2)cc1 . Reported differential viability (reversal)?
-0.24

Entry under review: COc1ccccc1-n1c(O)c(C=NCc2ccc3c(c2)OCO3)c(=O)[nH]c1=O . Reported differential viability (reversal)?
3.46

Entry under review: CC(C)(C)P(=O)(c1ccncc1)N1CCCC1 (configuration not stated) . Reported differential viability (reversal)?
-5.79

Entry under review: CCN1CCN(C(=O)COc2cc(=O)n(CC)c3ccccc23)CC1 . Reported differential viability (reversal)?
22.7

Entry under review: CC(=O)Nc1ccc(OC(=O)c2ccccc2N)cc1 . Reported differential viability (reversal)?
9.29

Entry under review: Cc1ccccc1NC1=NCCCS1 . Reported differential viability (reversal)?
-1.09

###

Target: Pantothenate synthetase (Mycobacterium tuberculosis (strain ATCC 25618 / H37Rv))
Assay: Coupled enzyme confirmation of inhibitors against recombinant Mtb PanC (AID 375);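 further: 0% = full reaction with vehicle and 100% = no enzyme background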
Details: coupled enzyme assay; at 10 µM, active compounds read high
measured_metric: inhibition (%)
# number only, unit % dropped from output

- molecule: "FC(F)Sc1nnc(-c2cccs2)n1-c1ccccc1"
  inhibition (%): 0
- molecule: "O=C(O)CN1C(=O)CNC1=O"
  inhibition (%): 0
- molecule: "O=C(CCC(=O)N1CCN(S(=O)(=O)c2ccccc2)CC1)c1cccs1"
  inhibition (%): 9
- molecule: "Cc1ccccc1NC(=O)C1CCN(c2cnccn2)CC1"
  inhibition (%): 0
- molecule: "O=C(OC1CCc2ccccc2C1=O)c1ccccc1O (configuration not stated)"
  inhibition (%): 0
- molecule: "O=C(NCc1cccnc1)C1c2ccccc2C(=O)N1Cc1ccco1 (configuration not stated)"
  inhibition (%): 1
- molecule: "O=c1c2ccccc2cnn1-c1nc2ccccc2s1"
  inhibition (%): 0
- molecule: "CCOc1ccc(-n2c(O)c(C=NCCN3CCNCC3)c(=O)[nH]c2=O)cc1"
  inhibition (%): 3

Entry under review: Clc1ccc(C2=Nn3c(nnc3-c3n[nH]c4c3CCC4)SC2)cc1Cl . Reported inhibition?
0

Entry under review: Cn1ccnc1SCCC#N . Reported inhibition?
7

Entry under review: O=C(c1ccco1)N1CCN(c2c(-c3ccccc3)c3cc(Cl)ccc3[nH]c2=O)CC1 . Reported inhibition?
5

Entry under review: COc1ccccc1CN1C(=S)SC(C)(C)C1NO (configuration not stated) . Reported inhibition?
0
